Measured values drawn from the nanobody polyreactivity screen of Harvey et al. (2022) for this set.

ASSAY METHOD TEXT: yeast display, Sf9 membrane polyspecificity reagent, FACS + sequencing; frameworks hold sequencing errors

{"SEQ": "QVQLVESGGGLVQAGGSLRLSCAASGRTFYYNAMGWYRQAPGKERELVAAISSGDSTYYADSVKGRFTISRDNAKNTVYLQMNSLKPEDTAVYYCNKYVAYDYWGQGTQVTVSS", "polyreactivity (PSR sort gate)": "low polyreactivity"}
{"SEQ": "QVQLVESGGGLVQAGGSLRLSCAASGRIFYPYAMGWYRQAPGKERELVASITWRGGSTYYADSVKGRFTISRDNAKNTVYLQMNSLKPEDTAVYYCAAVPYSYTYVYLSHYDYWGQGTQVTVSS", "polyreactivity (PSR sort gate)": "low polyreactivity"}
